Numbers sourced from patent EP1157985A1.

Exercise: for every item that follows, state its recorded IC50.
- SYSTEM: Human fibrinogen receptor (αIIbβ3) (Homo sapiens, UniProt P05106+P08514)
- Construct: Human fibrinogen receptor (αIIbβ3) was purified from outdated platelets
- Sequence (P08514 32-887 limits assumed): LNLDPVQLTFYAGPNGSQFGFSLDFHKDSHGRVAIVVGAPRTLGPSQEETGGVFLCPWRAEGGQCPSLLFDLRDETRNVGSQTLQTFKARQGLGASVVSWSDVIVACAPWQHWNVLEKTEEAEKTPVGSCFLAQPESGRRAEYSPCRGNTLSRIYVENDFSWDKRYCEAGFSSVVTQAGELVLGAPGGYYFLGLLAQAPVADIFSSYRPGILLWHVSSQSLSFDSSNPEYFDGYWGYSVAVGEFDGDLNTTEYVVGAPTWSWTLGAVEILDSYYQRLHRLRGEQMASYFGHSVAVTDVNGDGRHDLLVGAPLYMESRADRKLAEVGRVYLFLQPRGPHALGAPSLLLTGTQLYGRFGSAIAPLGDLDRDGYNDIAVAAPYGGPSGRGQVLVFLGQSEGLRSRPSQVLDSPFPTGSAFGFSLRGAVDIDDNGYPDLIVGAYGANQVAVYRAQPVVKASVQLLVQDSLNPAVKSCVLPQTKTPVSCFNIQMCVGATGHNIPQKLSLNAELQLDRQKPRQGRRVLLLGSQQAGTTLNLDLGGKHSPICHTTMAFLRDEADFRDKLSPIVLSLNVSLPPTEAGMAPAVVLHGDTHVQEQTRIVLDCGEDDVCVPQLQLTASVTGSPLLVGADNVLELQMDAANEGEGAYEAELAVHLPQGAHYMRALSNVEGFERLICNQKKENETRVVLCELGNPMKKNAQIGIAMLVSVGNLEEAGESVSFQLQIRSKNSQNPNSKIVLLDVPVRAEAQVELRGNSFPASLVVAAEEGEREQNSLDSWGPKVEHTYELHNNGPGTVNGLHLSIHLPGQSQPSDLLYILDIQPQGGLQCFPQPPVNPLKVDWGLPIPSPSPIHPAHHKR
- Sequence (P08514 891-1039 limits assumed): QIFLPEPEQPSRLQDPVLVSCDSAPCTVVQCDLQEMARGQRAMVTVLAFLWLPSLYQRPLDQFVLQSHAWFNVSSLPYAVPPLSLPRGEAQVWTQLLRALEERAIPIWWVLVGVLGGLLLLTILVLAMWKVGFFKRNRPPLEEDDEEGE
- Sequence (P05106 27-788): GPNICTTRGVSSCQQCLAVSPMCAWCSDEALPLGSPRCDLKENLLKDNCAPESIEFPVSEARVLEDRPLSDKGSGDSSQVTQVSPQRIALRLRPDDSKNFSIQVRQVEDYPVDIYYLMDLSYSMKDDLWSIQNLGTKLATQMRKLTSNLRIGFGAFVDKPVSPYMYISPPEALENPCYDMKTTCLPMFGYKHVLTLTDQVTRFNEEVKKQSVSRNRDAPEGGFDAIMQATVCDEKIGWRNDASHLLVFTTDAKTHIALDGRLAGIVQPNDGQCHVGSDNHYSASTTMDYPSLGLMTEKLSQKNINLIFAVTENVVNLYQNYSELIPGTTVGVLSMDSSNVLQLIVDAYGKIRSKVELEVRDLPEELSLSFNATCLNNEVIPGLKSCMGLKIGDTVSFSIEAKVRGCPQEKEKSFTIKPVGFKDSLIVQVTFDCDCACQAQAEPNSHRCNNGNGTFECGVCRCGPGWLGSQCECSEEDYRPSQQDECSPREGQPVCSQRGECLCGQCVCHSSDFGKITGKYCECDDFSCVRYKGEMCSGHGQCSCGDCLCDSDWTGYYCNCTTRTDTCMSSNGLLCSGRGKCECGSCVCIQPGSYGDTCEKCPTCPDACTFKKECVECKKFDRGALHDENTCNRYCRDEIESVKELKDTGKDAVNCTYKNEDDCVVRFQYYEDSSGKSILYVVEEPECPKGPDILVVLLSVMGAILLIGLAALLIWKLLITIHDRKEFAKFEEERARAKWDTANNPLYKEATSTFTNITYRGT
- ASSAY EXPLANATION: Purified IIb/IIIa receptor assay (solid phase receptor assay, competition with biotinylated vitronectin)
- CONDITION SET: purified receptor from outdated platelets; 1 nM biotinylated vitronectin; highest concentration tested 1.0 x 10^-4 M
Where a name gives a salt, the structure may show the parent alone.
Answer format reminder: number followed by unit.

Observe how each entry below is paired with its result.
MOLECULE	IC50
CC(C)(C)OC(=O)NC(Cc1ccc(NC(=O)c2cccc(N=C(N)N)c2)cc1)C(=O)O (stereo not shown) [Example 55, monohydrate trifluoroacetate salt]	14.3 nM
CC(C)OC(=O)NC(Cc1ccc(NC(=O)c2cccc(NC(N)=NC(N)=O)c2)cc1)C(=O)O (stereo not shown) [Example 105, bis(trifluoroacetate) salt]	267 nM

Would you mind giving IC50 for every molecule in the list below?
1. N=C(N)Nc1cccc(C(=O)Nc2ccc(CC(N)C(=O)O)cc2)c1 (stereo not shown) [Example 65, trifluoroacetate salt]
2. N=C(N)Nc1cccc(C(=O)Nc2ccc(C(CC(=O)O)c3ccccc3)cc2)c1 (stereo not shown) [Example 33, trifluoroacetate salt]
3. Cc1cc(C)c(S(=O)(=O)NC(Cc2ccc(NC(=O)c3cccc(NC(=N)N)c3)cc2)C(=O)O)c(C)c1 (stereo not shown) [Example 121, trifluoroacetate salt]
4. CCCCS(=O)(=O)N[C@@H](Cc1ccc(NC(=O)c2cccc(NC3=NCCCCC3)c2)cc1)C(=O)O [Example 10, trifluoroacetate salt]
5. CC(C)(C)OC(=O)N[C@H](Cc1ccc(NC(=O)c2cccc(NC(=N)N)c2)cc1)C(=O)O [Example 57, monohydrate trifluoroacetate salt]
6. NC(=O)Nc1cccc(C(=O)Nc2ccc(CCC(=O)O)cc2)c1
7. CC(=O)NC(Cc1ccc(NC(=O)Nc2cccc(NC(=N)N)c2)cc1)C(=O)O (stereo not shown) [Example 68, trifluoroacetate salt]

Resp:
["21900 nM", "7.37 nM", "2 nM", "26.9 nM", "318 nM", "4530 nM", "103 nM"]

Would you mind giving IC50 for every molecule in the list below?
1. N=C(N)c1cccc(C(=O)NCc2ccc(CCC(=O)O)cc2)c1 [Example 19, trifluoroacetate salt]
2. CC(C)OC(=O)NC(Cc1ccc(NC(=O)c2cccc(Nc3noc(N)n3)c2)cc1)C(=O)O (racemic) [Example 104, trifluoroacetate salt]
3. CCCCS(=O)(=O)N[C@@H](Cc1ccc(NC(=O)c2cc(NC3=NCCCCC3)cc(C(F)(F)F)c2)cc1)C(=O)O [Example 6, trifluoroacetate salt]
4. O=C(O)CCc1ccc(NC(=O)c2cccc(NC(=O)NCc3ccccc3)c2)cc1

Resp:
1: 1780 nM; 2: 1600 nM; 3: 49.5 nM; 4: 10100 nM
